target: PI3K delta (PI3Kd) (Homo sapiens); construct: Jurkat cells were homogenized in a Potter S homogenizer in lysis buffer; endogenous in cells; experiment: kinobeads assay, PI3K delta; details: Jurkat cell lysate, read-out: Inhibition values (IC50) PI3Kd
Sequence (O00329 whole entry): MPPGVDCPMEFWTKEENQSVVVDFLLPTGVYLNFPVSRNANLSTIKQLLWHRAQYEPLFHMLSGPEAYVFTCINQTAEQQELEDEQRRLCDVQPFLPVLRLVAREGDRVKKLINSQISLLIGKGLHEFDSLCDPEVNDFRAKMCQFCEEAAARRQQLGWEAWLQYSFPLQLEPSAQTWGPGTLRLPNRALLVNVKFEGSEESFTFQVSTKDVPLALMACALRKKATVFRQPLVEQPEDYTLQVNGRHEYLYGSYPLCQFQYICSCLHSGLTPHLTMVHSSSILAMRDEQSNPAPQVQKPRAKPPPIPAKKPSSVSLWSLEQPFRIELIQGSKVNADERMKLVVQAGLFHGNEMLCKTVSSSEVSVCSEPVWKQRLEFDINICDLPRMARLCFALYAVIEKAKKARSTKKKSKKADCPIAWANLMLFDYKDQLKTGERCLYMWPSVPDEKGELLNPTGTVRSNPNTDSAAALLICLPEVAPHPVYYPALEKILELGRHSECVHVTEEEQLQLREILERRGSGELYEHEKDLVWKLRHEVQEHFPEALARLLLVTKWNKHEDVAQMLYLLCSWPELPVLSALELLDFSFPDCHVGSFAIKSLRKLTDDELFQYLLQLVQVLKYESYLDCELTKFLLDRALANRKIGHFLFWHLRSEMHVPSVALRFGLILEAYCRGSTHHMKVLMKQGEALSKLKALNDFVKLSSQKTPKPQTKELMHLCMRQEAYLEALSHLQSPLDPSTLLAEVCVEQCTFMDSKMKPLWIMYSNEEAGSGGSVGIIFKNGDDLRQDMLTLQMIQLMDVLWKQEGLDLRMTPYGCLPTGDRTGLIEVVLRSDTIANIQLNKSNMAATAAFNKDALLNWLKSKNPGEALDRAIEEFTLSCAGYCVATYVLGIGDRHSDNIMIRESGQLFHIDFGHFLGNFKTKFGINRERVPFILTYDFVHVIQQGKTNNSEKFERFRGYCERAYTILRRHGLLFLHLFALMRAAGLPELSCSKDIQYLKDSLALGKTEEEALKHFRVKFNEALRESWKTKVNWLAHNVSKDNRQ
Sequence (P27986 whole entry partner): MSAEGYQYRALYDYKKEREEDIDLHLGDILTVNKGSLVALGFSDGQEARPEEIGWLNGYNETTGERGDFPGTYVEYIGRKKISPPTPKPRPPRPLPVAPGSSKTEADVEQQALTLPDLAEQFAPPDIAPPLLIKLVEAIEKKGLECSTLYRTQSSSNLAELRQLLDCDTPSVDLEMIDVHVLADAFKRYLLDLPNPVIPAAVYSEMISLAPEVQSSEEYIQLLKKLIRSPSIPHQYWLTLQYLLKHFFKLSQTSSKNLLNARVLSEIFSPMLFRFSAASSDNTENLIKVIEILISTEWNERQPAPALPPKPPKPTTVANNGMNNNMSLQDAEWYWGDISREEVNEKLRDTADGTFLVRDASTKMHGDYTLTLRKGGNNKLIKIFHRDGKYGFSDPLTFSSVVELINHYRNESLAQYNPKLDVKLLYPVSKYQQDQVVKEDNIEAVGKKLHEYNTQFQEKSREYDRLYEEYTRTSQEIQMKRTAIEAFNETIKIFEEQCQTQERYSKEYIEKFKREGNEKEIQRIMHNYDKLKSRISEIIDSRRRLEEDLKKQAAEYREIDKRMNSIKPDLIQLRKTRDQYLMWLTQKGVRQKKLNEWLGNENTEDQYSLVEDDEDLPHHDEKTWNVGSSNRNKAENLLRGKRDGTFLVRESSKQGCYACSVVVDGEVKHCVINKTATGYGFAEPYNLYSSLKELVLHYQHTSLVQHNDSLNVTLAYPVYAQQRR
pIC50: −log10 of the molar value.
endpoint: pIC50

Any idea what pIC50 was measured for C[C@H]1COCCN1c1nc(-c2ccc(NC(=O)NCCO)cc2)nc(-c2ccccc2S(C)(=O)=O)n1 ?
< 5.00

Also, C[C@H]1COCCN1c1nc(-c2ccc(NC(=O)NCC(C)(C)C)cc2)nc(-c2ccccc2S(C)(=O)=O)n1 please.
< 5.00

Proceed to C[C@H]1COCCN1c1nc(-c2ccc(NC(=O)NC3CCC3)cc2)nc(-c2ccccc2S(C)(=O)=O)n1
< 5.00

Next compound up: C[C@@H]1COCCN1c1nc(-c2ccc(NC(=O)NC3CC3)cc2)nc(-c2ccccc2S(C)(=O)=O)n1
< 5.00

Next compound: C[C@H]1COCCN1c1nc(-c2ccc(NC(=O)NCCF)cc2)nc(-c2ccccc2S(C)(=O)=O)n1
< 5.00

Continuing:
Consider the compound C[C@H]1COCCN1c1nc(-c2ccc(NC(=O)NCC(O)C(F)(F)F)cc2)nc(-c2ccccc2S(C)(=O)=O)n1 (stereo partly shown) and give its measured pIC50.
< 5.00

Lookup CS(=O)(=O)c1ccccc1-c1nc(-c2ccc(NC(=O)NC3CC3)cc2)nc(N2CCCOCC2)n1
< 5.00

====

target: PI3K beta (PI3Kb) (Homo sapiens, UniProt P42338); construct: Jurkat cells were homogenized in a Potter S homogenizer in lysis buffer; endogenous in cells; host or cells: Jurkat, clone E6-1 (ATCC TIB-152) lysate; assay: kinobeads assay, PI3K beta; type: binding; settings: Jurkat cell lysate, read-out: Inhibition values (IC50) PI3Kb
Sequence (P42338 whole entry, one chain of several): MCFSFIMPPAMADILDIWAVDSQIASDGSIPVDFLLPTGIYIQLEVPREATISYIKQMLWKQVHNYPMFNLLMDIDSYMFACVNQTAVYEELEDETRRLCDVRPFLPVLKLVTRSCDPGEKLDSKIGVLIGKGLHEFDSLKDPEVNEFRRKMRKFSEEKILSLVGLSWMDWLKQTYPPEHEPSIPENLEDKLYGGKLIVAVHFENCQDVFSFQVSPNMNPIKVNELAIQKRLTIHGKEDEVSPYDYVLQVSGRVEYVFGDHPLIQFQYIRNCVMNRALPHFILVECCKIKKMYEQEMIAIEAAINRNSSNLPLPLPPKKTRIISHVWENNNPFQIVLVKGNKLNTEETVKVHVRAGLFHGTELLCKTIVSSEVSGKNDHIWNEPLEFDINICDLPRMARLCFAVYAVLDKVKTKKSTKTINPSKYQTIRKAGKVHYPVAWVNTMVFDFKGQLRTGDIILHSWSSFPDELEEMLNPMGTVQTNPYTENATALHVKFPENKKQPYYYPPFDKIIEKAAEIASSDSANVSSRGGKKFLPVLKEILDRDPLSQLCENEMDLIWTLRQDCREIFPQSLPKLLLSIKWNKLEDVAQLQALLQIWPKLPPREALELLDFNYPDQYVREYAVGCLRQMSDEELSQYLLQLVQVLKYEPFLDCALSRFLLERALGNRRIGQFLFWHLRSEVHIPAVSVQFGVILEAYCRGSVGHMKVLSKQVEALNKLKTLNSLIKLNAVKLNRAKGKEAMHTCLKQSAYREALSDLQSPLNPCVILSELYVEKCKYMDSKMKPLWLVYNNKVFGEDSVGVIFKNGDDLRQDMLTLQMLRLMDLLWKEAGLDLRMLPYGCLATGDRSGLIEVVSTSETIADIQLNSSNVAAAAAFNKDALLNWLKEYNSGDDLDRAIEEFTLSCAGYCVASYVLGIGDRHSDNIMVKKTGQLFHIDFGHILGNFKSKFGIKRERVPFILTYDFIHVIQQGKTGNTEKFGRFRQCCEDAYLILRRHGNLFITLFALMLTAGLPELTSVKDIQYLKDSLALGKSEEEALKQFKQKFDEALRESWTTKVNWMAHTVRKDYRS
Listed below: IC50 values for each entry.

Past entries and their recorded results:
What does the data say about its IC50? Entry: C[C@H]1COCCN1c1nc(-c2ccc(NC(=O)NCCO)cc2)nc(-c2ccccc2S(C)(=O)=O)n1
> 10 µM

Lookup CC(C)CNC(=O)Nc1ccc(-c2nc(-c3ccccc3S(C)(=O)=O)nc(N3CCOC[C@@H]3C)n2)cc1
> 10 µM

Same thing, different compound: C[C@H]1COCCN1c1nc(-c2ccc(NC(=O)NC3CC3)cc2)nc(-c2cccnc2S(C)(=O)=O)n1
1 to 10 µM

Subsequent entry: C[C@H]1COCCN1c1nc(-c2ccc(NC(=O)NC3CCOC3)cc2)nc(-c2ccccc2S(C)(=O)=O)n1 (stereo partly drawn)
> 10 µM

What about C[C@H]1COCCN1c1nc(-c2ccc(NC(=O)NCCC(O)C(F)(F)F)cc2)nc(-c2ccccc2S(C)(=O)=O)n1 (stereo partly drawn) ?
> 10 µM

With those in mind, consider the next compound.
Need IC50 of C[C@H]1COCCN1c1nc(-c2ccc(NC(=O)NC3CCC3)cc2)nc(-c2ccccc2S(C)(=O)=O)n1 , thanks.
> 10 µM

====

pIC50: recorded values
biological target: mTOR (Homo sapiens, UniProt P42345); construct: Jurkat cells were homogenized in a Potter S homogenizer in lysis buffer; endogenous in cells; experiment: mTOR kinobeads assay (Jurkat cell lysate, dot blot detection); settings: read-out: Inhibition values (IC50) mTor
pIC50: −log10 of the molar value.

Bench note: what pIC50 did CS(=O)(=O)c1ccccc1-c1nc(-c2ccc(NC(=O)NC3CC3)cc2)nc(N2CCCOCC2)n1 show?
6.00 to 7.00

Can you check C[C@H]1COCCN1c1nc(-c2ccc(NC(=O)NC3CC3)cc2)nc(-c2cc(F)ccc2S(C)(=O)=O)n1 next?
6.00 to 7.00

How about this compound: C[C@H]1COCCN1c1nc(-c2ccc(NC(=O)Nc3ccncc3)cc2)nc(-c2ccccc2S(C)(=O)=O)n1
6.00 to 7.00

Follow-up entry: C[C@H]1COCCN1c1nc(-c2ccc(NC(=O)NC3CCOC3)cc2)nc(-c2ccccc2S(C)(=O)=O)n1 (some centres unmarked)
6.00 to 7.00

# iterate: C[C@H]1COCCN1c1nc(-c2ccc(NC(=O)NCC(O)C(F)(F)F)cc2)nc(-c2ccccc2S(C)(=O)=O)n1 (some centres unmarked)
6.00 to 7.00

For CS(=O)(=O)c1ccccc1-c1nc(-c2ccc(NC(=O)NC3CC3)cc2)nc(N2CCOCC2CO)n1 (centres unmarked) then?
5.00 to 6.00

Next:
I would be grateful if you could share the reported pIC50 for C[C@H]1COCCN1c1nc(-c2ccc(NC(=O)Nc3ccc(CO)cc3)cc2)nc(-c2ccccc2S(C)(=O)=O)n1 .
6.00 to 7.00

Repeat for the following compound: C[C@H]1COCCN1c1nc(-c2ccc(NC(=O)NCCO)cc2)nc(-c2ccccc2S(C)(=O)=O)n1
> 7.00

Next compound: CCCNC(=O)Nc1ccc(-c2nc(-c3ccccc3S(C)(=O)=O)nc(N3CCOC[C@@H]3C)n2)cc1
6.00 to 7.00

Would you mind doing CNC(=O)Nc1ccc(-c2nc(-c3cc(F)ccc3S(C)(=O)=O)nc(N3CCOC[C@@H]3C)n2)cc1 as well?
6.00 to 7.00

Again, but for C[C@H]1COCCN1c1nc(-c2ccc(NC(=O)NC3CCCC3)cc2)nc(-c2ccccc2S(C)(=O)=O)n1
6.00 to 7.00

Also C[C@H]1COCCN1c1nc(-c2ccc(NC(=O)NCC(C)(C)C)cc2)nc(-c2ccccc2S(C)(=O)=O)n1 , if possible.
5.00 to 6.00

And for C[C@H]1COCCN1c1nc(-c2ccc(NC(=O)Nc3cccnc3)cc2)nc(-c2ccccc2S(C)(=O)=O)n1 ?
6.00 to 7.00

Could you do the same for CS(=O)(=O)c1ccccc1-c1nc(-c2ccc(NC(=O)NC3CC3)cc2)nc(N2CCOCC2)n1 , please?
6.00 to 7.00

Entry to check: CNC(=O)Nc1ccc(-c2nc(-c3ccccc3S(C)(=O)=O)nc(N3CCOC[C@@H]3C)n2)cc1
6.00 to 7.00

Try this compound next: C[C@H]1COCCN1c1nc(-c2ccc(NC(=O)NCCF)cc2)nc(-c2cc(F)ccc2S(C)(=O)=O)n1
6.00 to 7.00

How about CC1(C)COCCN1c1nc(-c2ccc(NC(=O)NC3CC3)cc2)nc(-c2ccccc2S(C)(=O)=O)n1 ?
6.00 to 7.00

Then this compound: CCNC(=O)Nc1ccc(-c2nc(-c3ccccc3S(C)(=O)=O)nc(N3CCOC[C@@H]3C)n2)cc1
> 7.00

And the next one, C[C@H]1COCCN1c1nc(-c2ccc(NC(=O)NC3CCCCC3)cc2)nc(-c2ccccc2S(C)(=O)=O)n1 ?
5.00 to 6.00

Try the compound C[C@H]1COCCN1c1nc(-c2ccc(NC(=O)NCCC(F)(F)F)cc2)nc(-c2ccccc2S(C)(=O)=O)n1
5.00 to 6.00

What would you report for CS(=O)(=O)c1ccccc1-c1nc(-c2ccc(NC(=O)NC3CC3)cc2)nc(N2C3CCC2COC3)n1 ?
6.00 to 7.00

Likewise for C[C@H]1COCCN1c1nc(-c2ccc(NC(=O)NC3CCC3)cc2)nc(-c2ccccc2S(C)(=O)=O)n1 ?
6.00 to 7.00

Next compound: C[C@H]1COCCN1c1nc(-c2ccc(NC(=O)NC3CC3(F)F)cc2)nc(-c2ccccc2S(C)(=O)=O)n1 (some centres unmarked)
6.00 to 7.00

Cool, now CC(C)CNC(=O)Nc1ccc(-c2nc(-c3ccccc3S(C)(=O)=O)nc(N3CCOC[C@@H]3C)n2)cc1
5.00 to 6.00

And what about the compound C[C@H]1COCCN1c1nc(-c2ccc(NC(=O)NC3COC3)cc2)nc(-c2ccccc2S(C)(=O)=O)n1 ?
6.00 to 7.00

Ok, now CS(=O)(=O)c1ccccc1-c1nc(-c2ccc(NC(=O)NC3CC3)cc2)nc(N2CC3CCC(C2)O3)n1
> 7.00

Same for C[C@H]1COCCN1c1nc(-c2ccc(NC(=O)NCC(F)(F)F)cc2)nc(-c2ccccc2S(C)(=O)=O)n1
6.00 to 7.00

Moving on to the next compound: CCC1COCCN1c1nc(-c2ccc(NC(=O)NC3CC3)cc2)nc(-c2ccccc2S(C)(=O)=O)n1 (centres unmarked)
6.00 to 7.00

Another compound to look at: C[C@@H]1COCCN1c1nc(-c2ccc(NC(=O)NC3CC3)cc2)nc(-c2ccccc2S(C)(=O)=O)n1
6.00 to 7.00

====

biological target: mTOR (Homo sapiens); construct: Jurkat cells were homogenized in a Potter S homogenizer in lysis buffer; endogenous in cells; test: mTOR kinobeads assay (Jurkat cell lysate, dot blot detection); settings: read-out: Inhibition values (IC50) mTor
endpoint: IC50

Give the reported IC50 for CCS(=O)(=O)c1ccccc1-c1nc(-c2ccc(NC(=O)NC3CC3)cc2)nc(N2CCOC[C@@H]2C)n1 (system: mTOR (Homo sapiens)).
100 to 1000 nM

Another molecule to look at: CCNC(=O)Nc1ccc(-c2nc(-c3cccnc3S(C)(=O)=O)nc(N3CCOC[C@@H]3C)n2)cc1
< 100 nM

Here is the next molecule: C[C@H]1COCCN1c1nc(-c2ccc(NC(=O)NCCC(O)C(F)(F)F)cc2)nc(-c2ccccc2S(C)(=O)=O)n1 (some centres unmarked)
> 10000 nM

Further cases:
Return IC50 measured with mTOR (Homo sapiens) given this molecule: C[C@H]1COCCN1c1nc(-c2ccc(NC(=O)NCC(F)F)cc2)nc(-c2ccccc2S(C)(=O)=O)n1
< 100 nM

Entry CC(C)NC(=O)Nc1ccc(-c2nc(-c3ccccc3S(C)(=O)=O)nc(N3CCOC[C@@H]3C)n2)cc1 please
100 to 1000 nM

Continue with C[C@H]1COCCN1c1nc(-c2ccc(NC(=O)NCC(F)F)cc2)nc(-c2cc(F)ccc2S(C)(=O)=O)n1
100 to 1000 nM

Likewise for C[C@H]1COCCN1c1nc(-c2ccc(NC(=O)NC3CC3)cc2)nc(-c2ccccc2S(C)(=O)=O)n1 ?
< 100 nM

Would you mind doing CCNC(=O)Nc1ccc(-c2nc(-c3cc(F)ccc3S(C)(=O)=O)nc(N3CCOC[C@@H]3C)n2)cc1 as well?
100 to 1000 nM

Data provenance is patent US9175011B2.
